target: Recombinant p62 protein (Homo sapiens); construct: Recombinant p62 protein was buffer exchanged into Biacore SPR running buffer; experiment: Surface plasmon resonance (SPR) compound binding to immobilised p62; details: recombinant p62, 15° C
Sequence (Q13501 whole entry, species assumed): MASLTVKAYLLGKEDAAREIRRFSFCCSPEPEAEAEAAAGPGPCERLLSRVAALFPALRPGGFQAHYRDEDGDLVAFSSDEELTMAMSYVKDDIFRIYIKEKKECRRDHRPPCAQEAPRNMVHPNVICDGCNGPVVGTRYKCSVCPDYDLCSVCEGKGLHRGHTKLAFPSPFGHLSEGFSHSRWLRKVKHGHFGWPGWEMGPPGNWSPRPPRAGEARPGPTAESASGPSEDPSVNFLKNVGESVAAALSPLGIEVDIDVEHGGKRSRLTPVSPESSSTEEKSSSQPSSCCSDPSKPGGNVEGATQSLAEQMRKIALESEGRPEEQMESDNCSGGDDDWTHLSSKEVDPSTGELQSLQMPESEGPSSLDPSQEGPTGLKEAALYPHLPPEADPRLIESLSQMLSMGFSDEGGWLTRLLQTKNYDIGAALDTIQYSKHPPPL
assay_metric: receptor occupancy at 100 µM

# compound, observed
data = [
    ("OCCNCc1ccc2oc(Cc3ccccc3)cc2c1", "30 to 70%"),
    ("OCCNCc1cc(F)c2cc(Cc3ccccc3)oc2c1", "30 to 70%"),
    ("OCCNCc1cc2oc(Cc3ccccc3)cc2cc1F", "30 to 70%"),
    ("OCCNCc1ccc2cc(Cc3cccc(Cl)c3)oc2c1", "> 70%"),
    ("CC(O)CNCc1ccc2cc(Cc3ccccc3)oc2c1 (centres unmarked)", "30 to 70%"),
    ("CC(C)NCCOCc1ccc2cc(Cc3ccccc3)oc2c1", "30 to 70%"),
]

What the record says about "CN(C)C(=O)Cc1cc2ccc(CNCCO)cc2o1" : receptor occupancy at 100 µM is < 30%

What the record says about "O=C(CCO)Nc1ccc2cc(Cc3ccccc3)oc2c1" : receptor occupancy at 100 µM is < 30%

What the record says about "O=C(Nc1ccccc1)c1cc2ccc(CNCCO)cc2o1" : receptor occupancy at 100 µM is 30 to 70%

What the record says about "OCCNCc1ccc2cc(-c3ccccc3)oc2c1" : receptor occupancy at 100 µM is 30 to 70%

What the record says about OCCNCc1ccc2cc(CN3CCCC(O)C3)oc2c1 (centres unmarked) : receptor occupancy at 100 µM is < 30%

What the record says about "OCCNCc1ccc2cc(Cc3ccccc3)oc2c1" : receptor occupancy at 100 µM is < 30%

What the record says about OC1CC(NCc2ccc3cc(Cc4ccccc4)oc3c2)C1 (centres unmarked) : receptor occupancy at 100 µM is 30 to 70%

What the record says about "Cc1c(Cc2ccccc2)oc2cc(CNCCO)ccc12" : receptor occupancy at 100 µM is 30 to 70%

What the record says about "O=C(NCCO)c1ccc2cc(Cc3ccccc3)oc2c1" : receptor occupancy at 100 µM is < 30%

What the record says about "CNCCOCc1ccc2cc(Cc3ccccc3)oc2c1" : receptor occupancy at 100 µM is 30 to 70%

What the record says about "OCCNCc1ccc2cc(Cc3c[nH]cn3)oc2c1" : receptor occupancy at 100 µM is < 30%

What the record says about OCCNCc1ccc2cc(CNC3CCCC(O)C3)oc2c1 (centres unmarked) : receptor occupancy at 100 µM is 30 to 70%

What the record says about "OCCNCc1ccc2cc(Cc3ccc(F)cc3)oc2c1" : receptor occupancy at 100 µM is > 70%

What the record says about "COc1ccc(Cc2cc3ccc(CNCCO)cc3o2)cc1" : receptor occupancy at 100 µM is 30 to 70%

What the record says about "OCCNCc1ccc2c(Cc3ccccc3)coc2c1" : receptor occupancy at 100 µM is 30 to 70%

What the record says about "OCCNCc1ccc2cc(Cc3ccc(Cl)cc3)oc2c1" : receptor occupancy at 100 µM is > 70%

What the record says about "OCCNCc1ccc2cc(Cc3ccccc3)oc2c1F" : receptor occupancy at 100 µM is 30 to 70%

What the record says about "O=S(=O)(c1ccccc1)c1cc2ccc(CNCCO)cc2o1" : receptor occupancy at 100 µM is 30 to 70%

What the record says about "OCCNCc1cccc2oc(Cc3ccccc3)cc12" : receptor occupancy at 100 µM is 30 to 70%

What the record says about "OCCNCc1ccc2cc(Cc3ccncc3)oc2c1" : receptor occupancy at 100 µM is 30 to 70%

What the record says about "OCCNCc1ccc2cc(CCc3ccccc3)oc2c1" : receptor occupancy at 100 µM is 30 to 70%

What the record says about "OCCNCc1ccc2nc(Cc3ccccc3)sc2c1" : receptor occupancy at 100 µM is 30 to 70%

What the record says about "O=S(=O)(Nc1ccccc1)c1cc2ccc(CNCCO)cc2o1" : receptor occupancy at 100 µM is 30 to 70%

What the record says about "OCCNCc1ccc2cc(CCc3ccc(F)cc3)oc2c1" : receptor occupancy at 100 µM is 30 to 70%
